Assay: Hepatic microsomal stability, HLM
Type: in vitro ADME, human
Details: In vitro human liver microsomal stability
Could you mark each record Condition met if its perc_remaining falls strictly under 40%, and Condition not met if it equals or exceeds it?

| compound | assigned_class |
| --- | --- |
| Cn1ncc(-c2cc3c(N[C@@H](c4ccc5c(n4)OCCO5)C(C)(C)C)ncnc3[nH]2)c1C#N | Condition met |
| CC(C)[C@H](Nc1ncnc2[nH]c(-c3cnn(C)c3C#N)cc12)c1ccc2c(c1)NC(=O)CO2 (single isomer, unassigned) [ASAP-0013255] | Condition met |
| COc1ccc([C@H](CC(=O)O)NC(=O)c2ncnc3[nH]ccc23)cc1 (racemic) | Condition not met |
| CNC(=O)c1c[nH]c2ncnc(N[C@@H](c3ccc4c(c3)OCCO4)C(C)C)c12 | Condition met |
| CCNC(=O)c1cc2c(N[C@@H](c3ccc4c(c3)S(=O)(=O)NCC4)C(C)C)ncnc2[nH]1 | Condition met |

Data request: Regarding O=C(Nc1ccccc1)Nc1ccc(C(=O)NC2c3cccc(O)c3CC2C(=O)O)cc1 (stereo not shown) , kindly confirm whether its perc_remaining is beneath 40%.
Data returned: Condition not met

Data request: Regarding CNC(=O)c1cccc(-c2cc3c(N[C@H](c4ccc5c(c4)S(=O)(=O)CCC5)C(C)C)ncnc3[nH]2)c1 (single isomer, unassigned) , kindly confirm whether its perc_remaining is beneath 40%.
Data returned: Condition met

Data request: Regarding CC(C)[C@@H](Nc1ncnc2[nH]c(-c3cnn(CC(N)=O)c3)cc12)c1ccc2c(n1)OCCO2 [ASAP-0008646] , kindly confirm whether its perc_remaining is beneath 40%.
Data returned: Condition not met

Data request: Regarding CC(C)[C@@H](Nc1ncnc2[nH]c(-c3cnn(C)c3C#N)cc12)c1ccc2c(n1)NC(=O)CO2 (single isomer, unassigned) [ASAP-0011180] , kindly confirm whether its perc_remaining is beneath 40%.
Data returned: Condition not met

Data request: Regarding CC(C)[C@H](Nc1ncnc2[nH]c(-c3cnn(CC(N)=O)c3)cc12)c1ccc2c(c1)OCCO2 [ASAP-0008449] , kindly confirm whether its perc_remaining is beneath 40%.
Data returned: Condition not met

Data request: Regarding CNCc1cc(-c2cc3c(N[C@H](c4ccc5c(c4)S(=O)(=O)CCC5)C(C)C)ncnc3[nH]2)co1 (single isomer, unassigned) , kindly confirm whether its perc_remaining is beneath 40%.
Data returned: Condition met

Data request: Regarding CC(C)[C@H](Nc1ncnc2[nH]c(-c3cnn(CC(N)=O)c3)cc12)c1ccc2c(n1)OCCO2 , kindly confirm whether its perc_remaining is beneath 40%.
Data returned: Condition not met

###

Assay: Permeability Papp (AB) MDR1/MDCKII
Details: dog, MDCK-MDR1, Papp (AB) MDR1/MDCKII, A to B
property_label: Papp A→B (×10⁻⁶ cm/s)
Expressed in ×10⁻⁶ cm/s, but write only the number.

Data request: Fill in: Papp A→B of Cc1nn(C)cc1-c1cc2c(NC(c3ccc4c(c3)S(=O)(=O)CCC4)C(C)C)ncnc2[nH]1 (centres unmarked) is ___
Data returned: 4.4

Data request: Fill in: Papp A→B of CC(C)C(Nc1ncnc2[nH]c(C(=O)NC3CCN(C)C3)cc12)c1ccc2c(c1)S(=O)(=O)CCC2 (centres unmarked) is ___
Data returned: 2.9

###

Biological target: D1 (h) (Homo sapiens, UniProt P21728)
Construct: purchased Eurofins Cerep (SafetyScreen44), recognised from the panel format
Sequence (P21728 whole entry): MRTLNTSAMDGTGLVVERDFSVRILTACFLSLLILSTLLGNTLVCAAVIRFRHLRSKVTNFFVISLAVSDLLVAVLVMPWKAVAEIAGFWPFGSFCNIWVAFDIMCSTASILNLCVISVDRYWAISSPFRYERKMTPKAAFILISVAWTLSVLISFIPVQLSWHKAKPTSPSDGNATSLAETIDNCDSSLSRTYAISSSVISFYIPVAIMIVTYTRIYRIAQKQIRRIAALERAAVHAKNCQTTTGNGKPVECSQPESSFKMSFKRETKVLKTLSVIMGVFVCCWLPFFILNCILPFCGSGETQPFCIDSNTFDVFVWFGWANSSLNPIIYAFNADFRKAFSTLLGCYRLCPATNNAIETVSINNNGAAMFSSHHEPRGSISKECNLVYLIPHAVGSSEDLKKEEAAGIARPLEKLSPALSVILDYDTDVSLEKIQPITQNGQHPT
Assay: In vitro CEREP profiling, D1 (h) (antagonist radioligand)
Type: binding
Details: test compound 10 uM
Each entry below carries its recorded perc_inhibition (% inhibition of the binding of a ligand specific for each target).
Expressed in %, but write only the number.

Worked examples follow.
| structure | measurement_target | reported_value |
| --- | --- | --- |
| COc1ccc([C@H](Cc2nnn[nH]2)NC(=O)c2ncnc3[nH]ccc23)cc1 | D1 (h) (Homo sapiens, UniProt P21728) | -18 |
| CC(C)[C@H](Nc1ncnc2[nH]c(-c3cnn(C)c3C#N)cc12)c1ccc2c(n1)OCCO2 | D1 (h) (Homo sapiens, UniProt P21728) | 27 |
| CC(C)[C@@H](Nc1ncnc2[nH]c(-c3cnn(C)c3C#N)cc12)c1ccc2c(n1)OCCO2 | D1 (h) (Homo sapiens, UniProt P21728) | 10 |
| C[C@H](C(=O)O)[C@@H](NC(=O)c1ncnc2[nH]ccc12)c1ccc(Br)cc1 | D1 (h) (Homo sapiens, UniProt P21728) | -8 |
| Cn1ncc(-c2cc3c(N[C@@H](c4ccc5c(n4)OCCO5)C(C)(C)C)ncnc3[nH]2)c1C#N | D1 (h) (Homo sapiens, UniProt P21728) | 9 |
| CC(C)[C@H](Nc1ncnc2[nH]ccc12)c1ccc2c(c1)S(=O)(=O)CCC2 | D1 (h) (Homo sapiens, UniProt P21728) | -4 |

Now consider the entry below.
Data request: Fill in the recorded perc_inhibition (% inhibition of the binding of a ligand specific for each target) for this compound, with D1 (h) (Homo sapiens, UniProt P21728) as test system: CNCc1cc(-c2cc3c(N[C@@H](c4ccc5c(c4)S(=O)(=O)CCC5)C(C)C)ncnc3[nH]2)co1
Data returned: 14

###

Experiment: in vitro
Parameters: Cytotoxicity in iPSC-derived pneumocytes, CC50
Settings: human, ipsc-derived pneumocytes; ASAP-0008327-001=ASAP-0008490-001; read-out: 50.0
property_label: CC50

Data request: Fill in: CC50 of Cc1ncc(-c2cc3c(N[C@@H](c4ccc5c(c4)OCCO5)C(C)C)ncnc3[nH]2)cn1 [ASAP-0008490] is ___
Data returned: > 50 µM

###

Test: Hepatic microsomal stability, MLM
Format: in vitro ADME
Details: In vitro mouse liver microsomal stability
property_label: perc_remaining (%)
Expressed in %, but write only the number.

Worked examples follow.
| compound | reported_value |
| --- | --- |
| CNC(=O)c1cc2c(N[C@H](c3ccc4c(c3)S(=O)(=O)CCC4)C(C)C)ncnc2[nH]1 (single isomer, unassigned) | 42.0 |
| CC(C)[C@H](Nc1ncnc2[nH]c(C(=O)N[C@H]3CCN(C)C3)cc12)c1ccc2c(c1)S(=O)(=O)CCC2 | 98.0 |
| CC(C)[C@@H](Nc1ncnc2[nH]c(-c3cncc(S(C)(=O)=O)c3)cc12)c1ccc2c(c1)S(=O)(=O)CCC2 | 1.0 |

Data request: Fill in: perc_remaining of CC(C)[C@H](Nc1ncnc2[nH]c(-c3cnn(CC(N)=O)c3)cc12)c1ccc2c(c1)NC(=O)CO2 (racemic) is ___
Data returned: 84.0

Data request: Fill in: perc_remaining of CNCc1cc(-c2cc3c(N[C@@H](c4ccc5c(c4)S(=O)(=O)CCC5)C(C)C)ncnc3[nH]2)co1 [ASAP-0011176] is ___
Data returned: 35.0

Data request: Fill in: perc_remaining of CNC(=O)c1cc2c(N[C@@H](c3ccc4c(c3)NC(=O)CO4)C(C)C)ncnc2[nH]1 [ASAP-0008571] is ___
Data returned: 71.0

###

Experiment: Hepatic microsomal stability, MLM
Type: in vitro ADME
Settings: In vitro mouse liver microsomal stability; no cofactor
property_label: perc_remaining_no_cofactor (%)
Expressed in %, but write only the number.

Worked examples follow.
| compound | property_label | reported_value |
| --- | --- | --- |
| CCNC(=O)c1cc2c(NC(c3ccc4c(c3)OCCO4)C(C)C)ncnc2[nH]1 (centres unmarked) | perc_remaining_no_cofactor | 109.0 |
| O=C(Nc1cccc2c(C(=O)N[C@H]3c4ccccc4C[C@H]3C(=O)O)c[nH]c12)NC1CC1 (racemic) | perc_remaining_no_cofactor | 105.0 |
| COc1ccc([C@H](CC(=O)O)NC(=O)c2ncnc3[nH]ccc23)cc1 (racemic) | perc_remaining_no_cofactor | 96.0 |

Data request: Fill in: perc_remaining_no_cofactor of CC(C)C(Nc1ncnc2[nH]ccc12)c1ccc2c(c1)NC(=O)CO2 (centres unmarked) is ___
Data returned: 93.0

Data request: Fill in: perc_remaining_no_cofactor of CC(C)[C@@H](Nc1ncnc2[nH]c(-c3cnn(C)c3C#N)cc12)c1ccc2c(n1)OCCO2 [ASAP-0008418] is ___
Data returned: 110.0

###

Experiment: LogD
Details: pH 7.4; In vitro LogD
Each entry below carries its recorded logd.
The answer should be a number; do not append a unit.

Worked examples follow.
| molecule | logd |
| --- | --- |
| CC(C)[C@H](Nc1ncnc2[nH]c(-c3cnn(CC(=O)N(C)C)c3)cc12)c1ccc2c(c1)OCCO2 (single isomer, unassigned) [ASAP-0013837] | 3.0 |
| CC(C)[C@H](Nc1ncnc2[nH]c(-c3cnn(CC(N)=O)c3)cc12)c1ccc2c(c1)NC(=O)CO2 (racemic) [ASAP-0008621] | 2.5 |

Now consider the entry below.
Data request: Fill in: logd of CC(C(=O)O)C(NC(=O)c1ncnc2[nH]ccc12)c1ccc(Br)cc1 (mixture of isomers) [ASAP-0008445] is ___
Data returned: 0.5
